IC50 (ng/mL), A-204 reporter gene assay, conditioned media reference
System tested: T1, GDF-11 (UniProt O95390 299-407)
T1 sequence (looked up): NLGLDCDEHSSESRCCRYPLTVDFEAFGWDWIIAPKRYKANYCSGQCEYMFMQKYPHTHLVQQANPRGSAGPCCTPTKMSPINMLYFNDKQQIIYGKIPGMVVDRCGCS
Assay info: cell-based or functional assay
State the answer as a number, implicitly in ng/mL.

ActRIIb-hFc (R64, 20-131) (Fc fusion) GRGEAETRECIYYNANWELERTNQSGLERCEGEQDKRLHCYASWRNSSGTIELVKKGCWLDDFNCYDRQECVATEENPQVYFCCCEGNFCNERFTHLPEAGGPEVTYEPPPTGGGTHTCPPCPAPELLGGPSVFLFPPKPKDTLMISRTPEVTCVVVDVSHEDPEVKFNWYVDGVEVHNAKTKPREEQYNSTYRVVSVLTVLHQDWLNGKEYKCKVSNKALPVPIEKTISKAKGQPREPQVYTLPPSREEMTKNQVSLTCLVKGFYPSDIAVEWESNGQPENNYKTTPPVLDSDGSFFLYSKLTVDKSRWQQGNVFSCSVMHEALHNHYTQKSLSLSPGK :: 183
ActRIIb-hFc (R64, 23-131) (Fc fusion) EAETRECIYYNANWELERTNQSGLERCEGEQDKRLHCYASWRNSSGTIELVKKGCWLDDFNCYDRQECVATEENPQVYFCCCEGNFCNERFTHLPEAGGPEVTYEPPPTGGGTHTCPPCPAPELLGGPSVFLFPPKPKDTLMISRTPEVTCVVVDVSHEDPEVKFNWYVDGVEVHNAKTKPREEQYNSTYRVVSVLTVLHQDWLNGKEYKCKVSNKALPVPIEKTISKAKGQPREPQVYTLPPSREEMTKNQVSLTCLVKGFYPSDIAVEWESNGQPENNYKTTPPVLDSDGSFFLYSKLTVDKSRWQQGNVFSCSVMHEALHNHYTQKSLSLSPGK :: 60
ActRIIb-hFc (R64, 21-131) (Fc fusion) RGEAETRECIYYNANWELERTNQSGLERCEGEQDKRLHCYASWRNSSGTIELVKKGCWLDDFNCYDRQECVATEENPQVYFCCCEGNFCNERFTHLPEAGGPEVTYEPPPTGGGTHTCPPCPAPELLGGPSVFLFPPKPKDTLMISRTPEVTCVVVDVSHEDPEVKFNWYVDGVEVHNAKTKPREEQYNSTYRVVSVLTVLHQDWLNGKEYKCKVSNKALPVPIEKTISKAKGQPREPQVYTLPPSREEMTKNQVSLTCLVKGFYPSDIAVEWESNGQPENNYKTTPPVLDSDGSFFLYSKLTVDKSRWQQGNVFSCSVMHEALHNHYTQKSLSLSPGK :: 121
ActRIIb-hFc (R64, 22-131) (Fc fusion) GEAETRECIYYNANWELERTNQSGLERCEGEQDKRLHCYASWRNSSGTIELVKKGCWLDDFNCYDRQECVATEENPQVYFCCCEGNFCNERFTHLPEAGGPEVTYEPPPTGGGTHTCPPCPAPELLGGPSVFLFPPKPKDTLMISRTPEVTCVVVDVSHEDPEVKFNWYVDGVEVHNAKTKPREEQYNSTYRVVSVLTVLHQDWLNGKEYKCKVSNKALPVPIEKTISKAKGQPREPQVYTLPPSREEMTKNQVSLTCLVKGFYPSDIAVEWESNGQPENNYKTTPPVLDSDGSFFLYSKLTVDKSRWQQGNVFSCSVMHEALHNHYTQKSLSLSPGK :: 71

// below: IC50 (ng/mL), A-204 reporter gene assay, conditioned media requested for another binder
Fill blank: measured IC50 (ng/mL), A-204 reporter gene assay, conditioned media of the binder ActRIIb-hFc (R64, 24-131) (Fc fusion) AETRECIYYNANWELERTNQSGLERCEGEQDKRLHCYASWRNSSGTIELVKKGCWLDDFNCYDRQECVATEENPQVYFCCCEGNFCNERFTHLPEAGGPEVTYEPPPTGGGTHTCPPCPAPELLGGPSVFLFPPKPKDTLMISRTPEVTCVVVDVSHEDPEVKFNWYVDGVEVHNAKTKPREEQYNSTYRVVSVLTVLHQDWLNGKEYKCKVSNKALPVPIEKTISKAKGQPREPQVYTLPPSREEMTKNQVSLTCLVKGFYPSDIAVEWESNGQPENNYKTTPPVLDSDGSFFLYSKLTVDKSRWQQGNVFSCSVMHEALHNHYTQKSLSLSPGK is ____. 69
